Assay summary: Hygroscopicity by dynamic vapor sorption (DVS)
Assay type: physicochemical
Measurement context: 25° C. and 95% RH
Endpoint label: water absorbed (DVS)

Look up water absorbed (DVS) of Nc1cncc(-c2cn3ccnc3c(Nc3ccc(N4CCN(C5COC5)CC4)cc3)n2)n1 [Compound I Mono-BSA Form I] and report it.
> 15 wt. %
